Measured pIC50 (PAK3 (Homo sapiens))
pIC50: −log10 of the molar value.

CCn1c(=O)c(-c2cc(C)c(-c3cccnc3C)cc2Cl)cc2cnc(Nc3ccc(C4CCN(C)CC4)cc3)nc21	6.30 to 7.30
CCN(CC)CCc1ccc(Nc2ncc3cc(-c4ccc(-c5cccnc5C)cc4Cl)c(=O)n(CC)c3n2)cc1	6.30 to 7.30

query: # value lookup — system PAK3 (Homo sapiens), readout pIC50, item "CCn1c(=O)c(-c2ccc(-c3cncnc3)cc2Cl)cc2cnc(Nc3ccc(N4CCN(C)CC4)c(F)c3)nc21"
result: > 7.30

query: Form field: pIC50 recorded for "CCN1CCC(c2ccc(Nc3ncc4cc(-c5ccc(-c6cccnc6C)cc5Cl)c(=O)n(CC)c4n3)cc2F)CC1" with PAK3 (Homo sapiens) (enter value)
result: 6.30 to 7.30

query: Find pIC50 (PAK3 (Homo sapiens)) for the entry "CCn1c(=O)c(-c2ccc(-c3noc(C)n3)cc2Cl)cc2cnc(Nc3ccc(N4CCN(C)CC4)c(F)c3)nc21"
result: > 7.30

----------
pIC50: −log10 of the molar value.
Here's what we have: pIC50 numbers for UniProtKB Q13177.

CCN1CCC(c2ccc(Nc3ncc4cc(-c5ccc(-c6noc(C)n6)cc5Cl)c(=O)n(CC)c4n3)cc2F)CC1	> 7.30

query: Return pIC50 measured with UniProtKB Q13177 given this molecule: "CCn1c(=O)c(-c2ccc(-c3cccnc3F)cc2Cl)cc2cnc(Nc3ccc(C4=CCNCC4)cc3)nc21"
result: > 7.30

query: // lookup pIC50 | system=UniProtKB Q13177 | key= CCn1c(=O)c(-c2ccc(-c3cccnc3)cc2Cl)cc2cnc(Nc3ccc(N4CCN(C(C)C)CC4)cc3)nc21 [drawing 650]
result: > 7.30

query: Item: "CCn1c(=O)c(-c2ccc(-c3cncnc3)cc2Cl)cc2cnc(Nc3ccc(N4CCN(C(C)C)CC4)cc3)nc21" Test system: UniProtKB Q13177 Read-out: pIC50 Value: ?
result: > 7.30

----------
# tested-system: PAK4 (Homo sapiens, UniProt O96013)
# Sequence (O96013 whole entry): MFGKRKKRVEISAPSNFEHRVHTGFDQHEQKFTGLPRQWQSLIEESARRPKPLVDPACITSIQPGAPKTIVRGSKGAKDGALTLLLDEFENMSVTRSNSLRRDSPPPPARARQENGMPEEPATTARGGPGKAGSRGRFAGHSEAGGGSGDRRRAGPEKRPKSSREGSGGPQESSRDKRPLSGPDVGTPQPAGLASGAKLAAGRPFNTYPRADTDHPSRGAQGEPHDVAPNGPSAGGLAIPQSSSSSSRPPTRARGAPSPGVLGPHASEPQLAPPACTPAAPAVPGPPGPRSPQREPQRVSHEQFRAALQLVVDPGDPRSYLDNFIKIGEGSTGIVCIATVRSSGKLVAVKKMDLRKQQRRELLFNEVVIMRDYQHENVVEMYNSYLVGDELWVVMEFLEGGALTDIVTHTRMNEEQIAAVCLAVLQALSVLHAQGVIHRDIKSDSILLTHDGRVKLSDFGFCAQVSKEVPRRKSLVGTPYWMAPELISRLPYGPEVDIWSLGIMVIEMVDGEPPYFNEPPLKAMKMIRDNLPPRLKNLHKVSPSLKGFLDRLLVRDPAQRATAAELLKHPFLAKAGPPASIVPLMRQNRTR
pIC50: −log10 of the molar value.
quantity-measured: pIC50

CCn1c(=O)c(-c2ccc(-c3cc(N(C)C)ncn3)cc2Cl)cc2cnc(Nc3ccc(C4CCN(C)CC4)cc3)nc21	≤ 5.30
CCn1c(=O)c(-c2ccc(-c3ccn[nH]3)cc2)cc2cnc(Nc3ccc(N4CCN(C)CC4)cc3)nc21	≤ 5.30
CCn1c(=O)c(-c2ccc(-c3cccnc3C)cc2Cl)cc2cnc(Nc3ccc(C4CCN5CCCC5C4)cc3)nc21 (centres unmarked)	≤ 5.30
CCn1c(=O)c(-c2ccc(-c3cnc(C)s3)cn2)cc2cnc(Nc3ccc(C4CCN(C)CC4)cc3)nc21	≤ 5.30
CCN1CCN(c2ccc(Nc3ncc4cc(-c5ccc(-c6scnc6C)cc5Cl)c(=O)n(CC)c4n3)cc2)CC1	≤ 5.30

query: What is its pIC50 for PAK4 (Homo sapiens, UniProt O96013)? Entry: "CCn1c(=O)c(-c2ccc(-c3ccc(F)nc3C)cc2Cl)cc2cnc(Nc3ccc(C4CCN(C)CC4)cc3)nc21"
result: ≤ 5.30

query: What is its pIC50 for PAK4 (Homo sapiens, UniProt O96013)? Entry: "CCN1CCC(c2ccc(Nc3ncc4cc(-c5ccc(-c6ccnc(C)c6)cc5Cl)c(=O)n(CC)c4n3)cc2)CC1"
result: ≤ 5.30

query: Give PAK4 (Homo sapiens, UniProt O96013) pIC50 for "CCN(CC)CCc1ccc(Nc2ncc3cc(-c4ccc(-c5cnc(C)s5)cc4Cl)c(=O)n(CC)c3n2)cc1"
result: 5.30 to 6.30

----------
# tested-system: PAK1 (Homo sapiens)
# method-description: In vitro PAK inhibition assay (SelectScreen, Ser/Thr 19 peptide)
# Type: biochemical
quantity-measured: IC50

Below, each entry is followed by its recorded IC50 result.
CN1CCC(c2ccc(Nc3ncc4cc(-c5cc(-c6nccc(N(C)C)n6)ccc5Cl)c(=O)n(C)c4n3)cc2)CC1	0.5 to 5 µM
CCn1c(=O)c(-c2ccc(-c3noc(C)n3)cc2F)cc2cnc(Nc3ccc(C4CCN(C)CC4)cc3)nc21	< 0.05 µM
CCn1c(=O)c(-c2ccc(-c3noc(C)n3)s2)cc2cnc(Nc3ccc(N4CCN(C)CC4)cc3)nc21	> 5 µM

Proceeding to the next molecule to report its IC50.
query: Please give the measured IC50 for this molecule: "CCn1c(=O)c(-c2ccc(-c3cccc4ncccc34)cc2)cc2cnc(Nc3ccc(N4CCN(C)CC4)cc3)nc21"
result: > 5 µM

----------
pIC50: −log10 of the molar value.
Endpoint: pIC50. System: PAK1 (Homo sapiens, UniProt Q13153). Items follow.
Sequence (Q13153 whole entry): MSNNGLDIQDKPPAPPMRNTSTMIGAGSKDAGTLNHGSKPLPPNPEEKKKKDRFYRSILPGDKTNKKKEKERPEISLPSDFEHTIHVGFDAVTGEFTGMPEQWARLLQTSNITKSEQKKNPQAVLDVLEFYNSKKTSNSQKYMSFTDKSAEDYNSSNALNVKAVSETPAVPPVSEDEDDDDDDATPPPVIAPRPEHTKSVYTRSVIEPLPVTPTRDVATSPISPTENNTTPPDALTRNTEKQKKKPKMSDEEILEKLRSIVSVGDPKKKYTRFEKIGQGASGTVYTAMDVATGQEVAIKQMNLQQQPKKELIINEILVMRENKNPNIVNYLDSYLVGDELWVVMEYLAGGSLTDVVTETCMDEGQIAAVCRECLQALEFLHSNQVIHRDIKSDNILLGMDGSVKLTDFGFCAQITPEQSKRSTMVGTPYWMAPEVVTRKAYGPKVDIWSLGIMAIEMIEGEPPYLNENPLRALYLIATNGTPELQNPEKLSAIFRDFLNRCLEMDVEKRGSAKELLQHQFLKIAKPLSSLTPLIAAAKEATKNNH

Example entries and their recorded answers appear below.
CCn1c(=O)c(-c2ccc(-c3nccnc3C)cc2Cl)cc2cnc(Nc3ccccc3)nc21	6.30 to 7.30
CCn1c(=O)c(-c2ccc(-c3ccnc(C)c3)cc2Cl)cc2cnc(Nc3ccc(N4CCN(C)CC4)cc3)nc21	> 7.30
CCn1c(=O)c(-c2cc(C)c(-c3cccnc3C)cc2Cl)cc2cnc(Nc3ccc(C4CCN(C)CC4)cc3)nc21	> 7.30
CCn1c(=O)c(-c2ccc(-c3noc(C)n3)cc2Cl)cc2cnc(Nc3ccc(C4CCNC4)c(F)c3)nc21 (centres unmarked)	> 7.30

Now consider the entry below.
query: What value of pIC50 has been recorded for this entry: "CCn1c(=O)c(-c2ccc(-c3ccc(C)nc3)cc2Cl)cc2cnc(Nc3ccc(C4CCN(C)CC4)c(F)c3)nc21"
result: > 7.30

----------
Listed here: compounds with reported IC50 for UniProt O96013.

Solved cases below.
CCn1c(=O)c(-c2ccc(-c3cccnc3)cc2Cl)cc2cnc(Nc3ccc(N4CCN(C(C)C)CC4)cc3)nc21 [drawing 650]	≥ 5 µM
CCN1CCN(c2ccc(Nc3ncc4cc(-c5ccc(-c6cncnc6)cc5Cl)c(=O)n(CC)c4n3)cc2)CC1	0.5 to 5 µM
CCN(CC)CCc1ccc(Nc2ncc3cc(-c4ccc(-c5noc(C)n5)cc4Cl)c(=O)n(CC)c3n2)cc1	0.5 to 5 µM

Consider now this further compound.
query: Looking for the measured IC50 of "CN1CCC(c2ccc(Nc3ncc4cc(-c5cc(-c6nccc(N(C)C)n6)ccc5Cl)c(=O)n(C)c4n3)cc2)CC1" , can you help?
result: 0.5 to 5 µM

----------
# tested-system: PAK2 (PAK65) (Homo sapiens, UniProt Q13177)
# Sequence (Q13177 whole entry): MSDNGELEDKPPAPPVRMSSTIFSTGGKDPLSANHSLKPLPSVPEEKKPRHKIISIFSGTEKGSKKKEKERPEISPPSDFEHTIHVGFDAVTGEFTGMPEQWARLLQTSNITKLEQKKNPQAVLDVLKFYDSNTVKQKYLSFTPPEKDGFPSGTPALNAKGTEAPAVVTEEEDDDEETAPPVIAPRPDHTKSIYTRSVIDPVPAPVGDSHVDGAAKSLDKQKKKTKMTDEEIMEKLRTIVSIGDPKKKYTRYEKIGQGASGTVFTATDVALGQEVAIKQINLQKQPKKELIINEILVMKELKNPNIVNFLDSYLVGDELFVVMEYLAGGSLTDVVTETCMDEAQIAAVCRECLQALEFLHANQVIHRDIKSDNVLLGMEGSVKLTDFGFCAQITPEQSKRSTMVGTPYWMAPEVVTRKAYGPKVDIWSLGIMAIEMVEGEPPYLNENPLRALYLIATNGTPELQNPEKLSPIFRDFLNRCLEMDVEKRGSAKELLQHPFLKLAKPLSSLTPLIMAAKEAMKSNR
Overview of recorded IC50 for various compounds

Reference set (5 entries):
CCN1CCC(c2ccc(Nc3ncc4cc(-c5ccc(-c6cccnc6C)cc5Cl)c(=O)n(CC)c4n3)cc2F)CC1	50 to 500 nM
CN(C)CCc1ccc(Nc2ncc3cc(-c4ccc(-c5cccnc5F)cc4Cl)c(=O)n(C)c3n2)cc1	< 50 nM
CCn1c(=O)c(-c2cc(C)c(-c3cccnc3)cc2Cl)cc2cnc(Nc3ccc(C4CCN(C)CC4)cc3)nc21	< 50 nM
CC(=O)N(C)c1ccc(-c2ccc(Cl)c(-c3cc4cnc(Nc5ccc(C6CCN(C)CC6)cc5)nc4n(C)c3=O)c2)cn1	> 5000 nM
CCn1c(=O)c(-c2ccc(-c3cccnc3C)cc2Cl)cc2cnc(Nc3ccc(C4CCNCC4)c(F)c3)nc21	< 50 nM

query: Can you share its IC50? I mean this compound: "CCc1cc(-c2ccc(-c3cc4cnc(Nc5ccc(C6CCN(C)CC6)cc5)nc4n(CC)c3=O)c(Cl)c2)ncn1"
result: < 50 nM

query: Bench note: what IC50 did CCn1c(=O)c(-c2ccc(-c3cnc(C)s3)cc2Cl)cc2cnc(Nc3ccc(C4CCNC4)cc3)nc21 (centres unmarked) show?
result: < 50 nM

query: // lookup IC50 for "CCN1CCC(c2ccc(Nc3ncc4cc(-c5ccc(-c6ccc(F)nc6C)cc5Cl)c(=O)n(CC)c4n3)cc2)CC1"
result: 50 to 500 nM

----------
# tested-system: PAK4 (Homo sapiens, UniProt O96013)
pIC50: −log10 of the molar value.
Each record here notes measured pIC50.

Consider the following illustrative entries.
CCn1c(=O)c(-c2ccc(-c3cncs3)cc2Cl)cc2cnc(Nc3ccc(N4CCNCC4)cc3)nc21	5.30 to 6.30
CCn1c(=O)c(-c2ccc(-c3cccnc3F)cc2Cl)cc2cnc(Nc3ccc(CCN4CCCC4)cc3)nc21	6.30 to 7.30
CCN1CCC(c2ccc(Nc3ncc4cc(-c5ccc(-c6ccc(C)nc6F)cc5Cl)c(=O)n(CC)c4n3)cc2)CC1	5.30 to 6.30
CC(=O)Nc1ncccc1-c1ccc(Cl)c(-c2cc3cnc(Nc4ccc(C5CCN(C)CC5)cc4)nc3n(C)c2=O)c1	≤ 5.30
CCn1c(=O)c(-c2ccc(-c3cccnc3F)cc2Cl)cc2cnc(Nc3ccc(C4=CCNCC4)cc3)nc21	6.30 to 7.30
CCN1CCC(c2ccc(Nc3ncc4cc(-c5ccc(-c6cccnc6F)cc5Cl)c(=O)n(CC)c4n3)cc2)CC1	6.30 to 7.30

query: What does the record list as pIC50 for "CCN1CCC(c2ccc(Nc3ncc4cc(-c5ccc(-c6ccnc(C(=O)NC)c6)cc5Cl)c(=O)n(CC)c4n3)cc2)CC1" ?
result: 5.30 to 6.30

query: Item under review: "CCn1c(=O)c(-c2ccc(-c3cccnc3)cc2Cl)cc2cnc(Nc3ccc(N4CCNCC4)cc3)nc21" . Reported pIC50?
result: 5.30 to 6.30

The reported measurements were obtained from patent US20140163026A1.
